# TEST SYSTEM: Serine/threonine-protein kinase 4 (Homo sapiens);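 also: mean inhibition of MST1, reported as part of the GSK PKIS dataset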
# CONDITION INFO: at 0.1 µM
QUANTITY: inhibition (%)
Entry rule: numbers only, all in %.

Here is how some compounds turned out for inhibition.
SMILES: CCc1nn2ncccc2c1-c1ccnc(NC2CC2)n1
READOUT UNIT: %
inhibition: 1.74
//
SMILES: CC(=O)NCc1cccc(C#Cc2cncnc2Nc2ccc(OCc3cccc(F)c3)c(Cl)c2)c1
READOUT UNIT: %
inhibition: 1.57
//
SMILES: COc1cc2c(cc1Nc1nc(Nc3ccsc3C(N)=O)c3cc[nH]c3n1)N(C(=O)CN(C)C)CCC2(C)C
READOUT UNIT: %
inhibition: 15.6
//
SMILES: Cc1ccc2c(-c3ccnc(Nc4ccccc4)n3)c(-c3ccc(F)cc3)nn2n1
READOUT UNIT: %
inhibition: 6.19

Kindly note the recorded inhibition for COc1ccc(CNC(=O)c2ccc(-c3cc(-c4nnc(C)o4)ccc3C)cc2)cc1 , which is 7.99

Hello, the source for this data is ChEMBL document CHEMBL1961873, in case you need it.
